B1: mRNA-splicing (parent)
chain: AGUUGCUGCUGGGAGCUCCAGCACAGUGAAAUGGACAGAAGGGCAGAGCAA

Variants of: B1
procedure.text: exon inclusion enrichment index; higher = more inclusion; WT1 exon 5 minigene, HEK293
Would you please tag the item rule met when its exon inclusion enrichment index is 0.3 or above, and rule not met when it is below?

Known results for variants:
G5A C6G U7G C9A G43U C44G
rule not met
G5C C6A U7C G8A U10A A20U G21C
rule not met
C6A U7A C9G U10G
rule not met
G5C C6A U7C G8A U10A G46A A47G
rule not met
G5A U7C G8A U10C C44U
rule met
G5A U7C G8A U10A G11A
rule met
G5A C6G U7G C9A U17G C18G
rule not met
G5A U7C G8A U10C G33C G34C
rule met

Determine whether this variant has exon inclusion enrichment index no lower than 0.3: U4A G5C
rule not met

Another variant to look at: G5U G8U C9U A40C G41U
rule not met

Reference for the values: the RNAGym collection of RNA variant scans (doi:10.1101/gr.219683.116)
